Collected apparent KD of MS2 coat protein values appear next to each entry.
system: MS2 coat protein; assay: apparent KD of MS2 coat protein, switch ON state; designed switch direction (-1 OFF switch, 1 ON switch): -1; higher = weaker reporter binding; settings: FMN input: 0 or 200 uM; Eterna round: R93 (includes R88 designs)
measuredAttribute: apparent KD of MS2 coat protein (nM)

                               sequencetext                measuredattribute  unitabbreviation  assayresult
0  AAACCACAUGAGGAUCACCCAUGUCAGGAUAUGCAAACAACAAACAACAAACAACAAAGCAGAAGGGACAACAA [63%, Olong, 2]  apparent KD of MS2 coat protein                nM         13.8
1  AAAAAUGGAGGAUAUACGUACAUGUCAAAAGACGUGAAGGGACAUGAGGAUCACCCAUGUAGAAGGCUAAAAAA [JL Stem Breaker 7]  apparent KD of MS2 coat protein                nM         80.1
2  GAAAAGUCAGGAUAUACAGAAAAAAAAACGAAAAAAAAUCUGUAGAAGGGACAUGAGGAUCACCCAUGUUAAAG [Mat - Exclusion 4 - Mayanna - D126]  apparent KD of MS2 coat protein                nM           38

* * *

test system: MS2 coat protein; assay: apparent KD of MS2 coat protein; designed switch direction (-1 OFF switch, 1 ON switch): -1; higher = weaker reporter binding; conditions: input ligand: none
Would you please tag the item 1.0 when its apparent KD of MS2 coat protein is 30 nM or above, and 0.0 when it is below?

sequenceText	testedSystem	assignedLabel
GUAGAGUCAGGAUAUACAAAUAGAUCGAAAGAUCAAUCCAUACAUGAGGAUCACCCAUGUAGAAGGGACUCUAC [Eli x2 4.15] (Eterna round: R97, puzzle: Exclusion 2)	MS2 coat protein	0.0
ACAUGAGGAUCACCCAUGUCCGGCUGGUCCGUCUCGGCUGUCGAGGAUAUGGCUCGGUGUCCGCGCUAGAAGGUGGGAGCCGGC [Aenatbe mod 73] (Eterna round: R96, puzzle: Exclusion NG 3)	MS2 coat protein	1.0
AGCUAGUCAGGAUAUACGCAAACGAACGAAGCAGUGAAGGGACAUGAGGAUCACCCAUGUAGAAGGGACUAGCA [Diamond 30] (Eterna round: R96, puzzle: Exclusion 2)	MS2 coat protein	0.0
UUAAUGGUUGUGAGGAUAUCGGAUAGAUAGAUAUUCGAGAAGGCACAUGAGGAUCACCCAUGUGUGAUUAGAAA [JR_BMEx4_Sub049] (Eterna round: R97, puzzle: Brourd's mod of Exclusion 4)	MS2 coat protein	0.0

* * *

test system: MS2 coat protein; test: apparent KD of MS2 coat protein; designed switch direction (-1 OFF switch, 1 ON switch): -1; higher = weaker reporter binding; conditions: Eterna round: R95; input ligand: FMN 200 uM

sequenceText	testedSystem	unitAbbreviation	apparent KD of MS2 coat protein
AAGUACCGUCACGAUAGUGAUGGUACAACAAGUAUGUGAACAUGAGGAUCACCCAUGUCCUCUUUUGCUCGUCUUAU [Sensor 3 - 89] (puzzle: Sensor v3, turn-off variant 2)	MS2 coat protein	nM	313
UCAUGUAUGUAGGAUAUCGAUGUCCUCGGACAUCGAGAAGGACGUACAUGAGGAUCACCCAUGUAACUUGCAUG [Exclusion 6 - B - 11:c] (puzzle: Exclusion 6)	MS2 coat protein	nM	23
AAGAAACAUGAGGAUCACCCAUGUGAGGAUAUGAAAAAUAAAAUAAAAUAAAUAAUAAUCAGAAGGCACAAAGG [Mat - Mod of Hog D7] (puzzle: Exclusion 1)	MS2 coat protein	nM	37.3

Value source: the supplement of paper PMC9170038
